Assay: Clearance in CD1 mouse at 10 mg/kg, iv
Type: ADME, organism-based
Parameters: dose 10 mg/kg, route intravenous
Conditions: in vivo
Recorded Endpoint: clearance (mL/min/kg)

>>> reported_result("COCCNC(=O)c1nc(N2CC[C@@H](NC(=O)c3[nH]c(C)c(Cl)c3Cl)[C@@H](OC)C2)sc1C(=O)O")
57
>>> reported_result("Cc1[nH]c(C(=O)NC2CCN(c3ncc(C(=O)O)s3)CC2)c(Cl)c1Cl")
15.5
>>> reported_result("COCC(COC)NC(=O)c1nc(N2CC[C@@H](NC(=O)c3[nH]c(C)c(Cl)c3Cl)[C@@H](OC)C2)sc1C(=O)O")
5.35
>>> reported_result("CO[C@H]1CN(c2nc(-c3ncccn3)c(C(=O)O)s2)CC[C@H]1NC(=O)c1[nH]c(C)c(Cl)c1Cl")
22
>>> reported_result("COC[C@H](C)NC(=O)c1nc(N2CC[C@@H](NC(=O)c3[nH]c(C)c(Cl)c3Cl)[C@@H](OC)C2)sc1C(=O)O [AZD-5099]")
10
>>> reported_result("CO[C@H]1CN(c2ncc(C(=O)O)s2)CC[C@H]1NC(=O)c1[nH]c(C)c(Cl)c1Cl")
99
>>> reported_result("CO[C@H]1CN(c2nc(-c3ncnn3C)c(C(=O)O)s2)CC[C@H]1NC(=O)c1[nH]c(C)c(Cl)c1Cl")
7.4

====

Recorded MIC, one value per entry.
System: Staphylococcus aureus
Experiment: Antimicrobial activity against methicillin, quinolone-resistant Staphylococcus aureus by broth microdilution/CLSI method
Type: functional
Settings: Staphylococcus aureus; read-out: MIC
Recorded Endpoint: MIC (µg/mL)

>>> reported_result("CO[C@H]1CN(c2nc(C(=O)NCC3OCCO3)c(C(=O)O)s2)CC[C@H]1NC(=O)c1[nH]c(C)c(Cl)c1Cl")
0.1
>>> reported_result("COc1cc(OC)nc(-c2nc(N3CC[C@@H](NC(=O)c4[nH]c(C)c(Cl)c4Cl)[C@@H](OC)C3)sc2C(=O)O)n1")
0.05
>>> reported_result("CO[C@H]1CN(c2nc(-c3cncc(NCCN4CCN(C)CC4)n3)c(C(=O)O)s2)CC[C@H]1NC(=O)c1[nH]c(C)c(Cl)c1Cl")
0.58
>>> reported_result("Cc1[nH]c(C(=O)N[C@@H]2CCN(c3ncc(C(=O)O)s3)CC23OCCO3)c(Cl)c1Cl")
64

====

Tested on: Moraxella catarrhalis
Test: Antimicrobial activity against Moraxella catarrhalis by broth microdilution/CLSI method
Type: functional
Settings: Moraxella catarrhalis; read-out: MIC
Recorded Endpoint: MIC

>>> reported_result("CO[C@H]1CN(c2nc(-c3cncnc3)c(C(=O)O)s2)CC[C@H]1NC(=O)c1[nH]c(C)c(Cl)c1Cl")
"0.4 µg/mL"
>>> reported_result("CO[C@H]1CN(c2nc(-c3ccncn3)c(C(=O)O)s2)CC[C@H]1NC(=O)c1[nH]c(C)c(Cl)c1Cl")
"< 0.06 µg/mL"
>>> reported_result("CO[C@H]1CN(c2nc3cccc(C(=O)O)c3s2)CC[C@H]1NC(=O)c1[nH]c(C)c(Cl)c1Cl")
"< 0.001 µg/mL"
>>> reported_result("CO[C@H]1CN(c2nc(-c3ncnn3C)c(C(=O)O)s2)CC[C@H]1NC(=O)c1[nH]c(C)c(Cl)c1Cl")
"0.026 µg/mL"
>>> reported_result("CO[C@H]1CN(c2nc(C(=O)NN3CCOCC3)c(C(=O)O)s2)CC[C@H]1NC(=O)c1[nH]c(C)c(Cl)c1Cl")
"0.35 µg/mL"
>>> reported_result("C=C1COC2(CN(c3ncc(C(=O)O)s3)CC[C@H]2NC(=O)c2[nH]c(C)c(Cl)c2Cl)OC1")
"< 0.063 µg/mL"
>>> reported_result("COCn1ccnc1-c1nc(N2CC[C@@H](NC(=O)c3[nH]c(C)c(Cl)c3Cl)[C@@H](OC)C2)sc1C(=O)O")
"< 0.06 µg/mL"
>>> reported_result("Cc1[nH]c(C(=O)N[C@@H]2CCN(c3ncc(C(=O)O)s3)C[C@@H]2N=[N+]=[N-])c(Cl)c1Cl (racemic)")
"< 0.063 µg/mL"

====

Test system: Escherichia coli
Test: Antimicrobial activity against Escherichia coli tolC- by broth microdilution/CLSI method
Type: functional
Details: Escherichia coli; read-out: MIC
Recorded Endpoint: log10 of MIC (log10 of the value in µg/mL)

>>> reported_result("COCn1ccnc1-c1nc(N2CC[C@@H](NC(=O)c3[nH]c(C)c(Cl)c3Cl)[C@@H](OC)C2)sc1C(=O)O")
-0.60
>>> reported_result("CO[C@H]1CN(c2nc(C(=O)O)c(C(N)=O)s2)CC[C@H]1NC(=O)c1[nH]c(C)c(Cl)c1Cl (racemic)")
0.00
>>> reported_result("CNC(=O)c1sc(N2CC[C@@H](NC(=O)c3[nH]c(C)c(Cl)c3Cl)[C@@H](OC)C2)nc1C(=O)O")
0.30
>>> reported_result("CO[C@H]1CN(c2nc(-c3ncnn3C)c(C(=O)O)s2)CC[C@H]1NC(=O)c1[nH]c(C)c(Cl)c1Cl")
-0.34
>>> reported_result("CO[C@H]1CN(c2nc(C(=O)N3CCOCC3)c(C(=O)O)s2)CC[C@H]1NC(=O)c1[nH]c(C)c(Cl)c1Cl (racemic)")
0.60
>>> reported_result("CNC(=O)c1nc(N2CC[C@@H](NC(=O)c3[nH]c(C)c(Cl)c3Cl)[C@@H](OC)C2)sc1C(=O)O")
-0.52
>>> reported_result("COCC(COC)(COC)NC(=O)c1nc(N2CC[C@@H](NC(=O)c3[nH]c(C)c(Cl)c3Cl)[C@@H](OC)C2)sc1C(=O)O")
0.11
>>> reported_result("CO[C@H]1CN(c2nc(-c3ccn[nH]3)c(C(=O)O)s2)CC[C@H]1NC(=O)c1[nH]c(C)c(Cl)c1Cl")
-0.74
>>> reported_result("CO[C@H]1CN(c2nc(C(N)=O)c(C(=O)O)s2)CC[C@H]1NC(=O)c1[nH]c(C)c(Cl)c1Cl")
-0.49
>>> reported_result("COCc1nc(N2CC[C@@H](NC(=O)c3[nH]c(C)c(Cl)c3Cl)[C@@H](OC)C2)sc1C(=O)O")
-0.30
>>> reported_result("CO[C@H]1CN(c2nc3cccc(C(=O)O)c3s2)CC[C@H]1NC(=O)c1[nH]c(C)c(Cl)c1Cl")
-0.60
>>> reported_result("CO[C@H]1CN(c2nc(C(=O)NC3COC(C)(C)OC3)c(C(=O)O)s2)CC[C@H]1NC(=O)c1[nH]c(C)c(Cl)c1Cl")
-0.12
>>> reported_result("CO[C@H]1CN(c2nc(-c3cnccn3)c(C(=O)O)s2)CC[C@H]1NC(=O)c1[nH]c(C)c(Cl)c1Cl")
-0.30
>>> reported_result("CO[C@H]1CN(c2nc(C(=O)NCCN3CCOCC3)c(C(=O)O)s2)CC[C@H]1NC(=O)c1[nH]c(C)c(Cl)c1Cl")
-0.60

====

System: Escherichia coli
Test: Antimicrobial activity against Escherichia coli tolC- by broth microdilution/CLSI method
Assay type: functional
Conditions: Escherichia coli; read-out: MIC
Recorded Endpoint: MIC (µg/mL)

>>> reported_result("Cc1[nH]c(C(=O)N[C@@H]2CCN(c3ncc(C(=O)O)s3)C[C@@H]2C)c(Cl)c1Cl (racemic)")
0.5
>>> reported_result("Cc1[nH]c(C(=O)N[C@@H]2CCN(c3ncc(C(=O)O)s3)CC23OCC2(CC2)CO3)c(Cl)c1Cl")
1
>>> reported_result("CO[C@H]1CO[C@@]2(CN(c3ncc(C(=O)O)s3)CC[C@H]2NC(=O)c2[nH]c(C)c(Cl)c2Cl)OC1 (relative stereo)")
1
>>> reported_result("COC1(OC)CN(c2ncc(C(=O)O)s2)CC[C@H]1NC(=O)c1[nH]c(C)c(Cl)c1Cl")
0.5
>>> reported_result("CO[C@@H]1CN(c2ncc(C(=O)O)s2)CC[C@H]1NC(=O)c1[nH]c(C)c(Cl)c1Cl")
2
>>> reported_result("Cc1[nH]c(C(=O)N[C@@H]2CCN(c3ncc(C(=O)O)s3)C[C@@H]2Cl)c(Cl)c1Cl (racemic)")
0.35
>>> reported_result("CO[C@@H]1CN(c2ncc(C(=O)O)s2)CC[C@@H]1NC(=O)c1[nH]c(C)c(Cl)c1Cl")
8
>>> reported_result("CO[C@H]1CN(c2ncc(C(=O)O)s2)CC[C@@H]1NC(=O)c1[nH]c(C)c(Cl)c1Cl")
64
>>> reported_result("CO[C@H]1CN(c2nc(-c3ncccn3)c(C(=O)O)s2)CC[C@H]1NC(=O)c1[nH]c(C)c(Cl)c1Cl")
0.5
>>> reported_result("CCO[C@H]1CN(c2ncc(C(=O)O)s2)CC[C@H]1NC(=O)c1[nH]c(C)c(Cl)c1Cl (racemic)")
1
>>> reported_result("CO[C@H]1CN(c2nc(C(=O)O)c(C)s2)CC[C@H]1NC(=O)c1[nH]c(C)c(Cl)c1Cl")
0.25
>>> reported_result("CO[C@H]1CN(c2nc(C(=O)NCC3(C)OCCO3)c(C(=O)O)s2)CC[C@H]1NC(=O)c1[nH]c(C)c(Cl)c1Cl")
0.5
>>> reported_result("CO[C@H]1CN(c2nc(C(C)=O)c(C(=O)O)s2)CC[C@H]1NC(=O)c1[nH]c(C)c(Cl)c1Cl")
0.26
>>> reported_result("C#CCO[C@H]1CN(c2ncc(C(=O)O)s2)CC[C@H]1NC(=O)c1[nH]c(C)c(Cl)c1Cl")
0.13
